meta.source: patent US4895867A

# System: guinea pig atrial muscle
# method_summary: In vitro guinea pig atrial muscle contractile force measurement (Test Method I)
# Type: cell-based
# run_conditions: Cavia porcellus; calculated concentration required to increase the contractile force by 50% from the control level; isolated left atria, 30° C., mean of at least three tissues
Counter-ions that a name gives are not always drawn.
// pEC50 lookup, one value per entry
pEC50 field: float, defined as -log10 of concentration (mol/L).

{"molecule": "FC(F)(F)c1cccc(-c2ccc(-c3ncc[nH]3)o2)c1 [Example 3]", "target_of_assay": "guinea pig atrial muscle", "pEC50": 5.19}

State pEC50 on guinea pig atrial muscle. Entry: FC(F)(F)c1ccc(-c2ccc(-c3ncc[nH]3)o2)cc1 [Example 16]
5.52

State pEC50 on guinea pig atrial muscle. Entry: Brc1ccccc1-c1ccc(-c2ncc[nH]2)o1 [Example 8]
5.24

State pEC50 on guinea pig atrial muscle. Entry: Clc1ccc(-c2ccc(-c3ncc[nH]3)o2)c(Cl)c1 [Example 12]
5.89

State pEC50 on guinea pig atrial muscle. Entry: Clc1ccccc1-c1ccc(-c2ncc[nH]2)o1 [Example 9]
5.43

State pEC50 on guinea pig atrial muscle. Entry: FC(F)(F)c1ccccc1-c1ccc(-c2ncc[nH]2)o1 [Example 11]
4.55

State pEC50 on guinea pig atrial muscle. Entry: c1ccc(-c2ccc(-c3ncc[nH]3)o2)cc1 [Example 6]
4.64

State pEC50 on guinea pig atrial muscle. Entry: COc1cc(-c2ccc(-c3ncc[nH]3)o2)ccc1Br [Example 29, Hydrochloride]
5.47

----------
# System: guinea pig atrial muscle
# method_summary: In vitro guinea pig atrial muscle contractile force measurement (Test Method I)
# Assay type: cell-based
# run_conditions: Cavia porcellus; calculated concentration required to increase the contractile force by 50% from the control level; isolated left atria, 30° C., mean of at least three tissues
Structures can show the parent of a compound that is named as a salt.
// EC50 lookup, one value per entry
Give your result in µM as a bare value.

Known results for compounds:
{"compound": "COc1ccc(-c2ccc(-c3ncc[nH]3)o2)cc1 [Example 28]", "result_units": "µM", "EC50": 28}
{"compound": "COc1ccc(-c2ccc(-c3ncc[nH]3)o2)c([N+](=O)[O-])c1 [Example 17]", "result_units": "µM", "EC50": 8.2}
{"compound": "Clc1ccc(-c2ccc(-c3ncc[nH]3)o2)cc1Cl [Example 13]", "result_units": "µM", "EC50": 5.4}
{"compound": "Cc1ccc(-c2ccc(-c3ncc[nH]3)o2)cc1 [Example 19, hydrochloride]", "result_units": "µM", "EC50": 3.7}
{"compound": "Cc1ccc(-c2ccc(-c3ncc[nH]3)o2)c(Br)c1 [Example 25]", "result_units": "µM", "EC50": 1.5}
{"compound": "O=[N+]([O-])c1ccccc1-c1ccc(-c2ncc[nH]2)o1 [Example 5]", "result_units": "µM", "EC50": 60}

Using the record for CC(=O)c1ccc(-c2ccc(-c3ncc[nH]3)o2)cc1 [Example 7] , state its measured EC50.
40

Using the record for Cc1cnc(-c2ccc(-c3ccc(Br)cc3)o2)n1C [Example 33, Hydrochloride] , state its measured EC50.
50.2

Using the record for FC(F)(F)c1cc(-c2ccc(-c3ncc[nH]3)o2)ccc1Br [Example 26] , state its measured EC50.
4

Using the record for COc1ccc(-c2ccc(-c3ncc[nH]3)o2)cc1OC [Example 4] , state its measured EC50.
190

Using the record for Ic1ccc(-c2ccc(-c3ncc[nH]3)o2)cc1 [Example 27] , state its measured EC50.
10.3

Using the record for Brc1ccc(-c2ccc(-c3ncc[nH]3)o2)cc1 [Example 14] , state its measured EC50.
1.3

Using the record for Cc1c[nH]c(-c2ccc(-c3ccc(Br)cc3)o2)n1 [Example 23, Hydrochloride] , state its measured EC50.
0.5
